Items are presented alongside their recorded IC50.
Test system: HeLa S3 cells
Experiment: HeLa S3 Cell Growth Inhibition Test
Format: cell-based
Conditions: Homo sapiens, HeLa S3, 72 h, HeLa S3; 72 hours incubation; Neutral Red; read-out: IC50, HeLa S3 cell growth inhibition
Provide only the numeric value, understood in nM.

• CC1=C(CSC(=O)C(C)(O)C23CC/C(C)=C/C(OC4CCCCO4)C(=O)/C=C/C=C\c4csc(n4)C(C)N(C(=O)C2)[S+]3[O-])C(=O)OC2(CCOCC2)O1 (centres unmarked) = 47

stdin: Query (molecule): CC(=O)Oc1ccc(C(=O)OCSC(=O)C(C)(O)C23CC/C(C)=C/C(OC4CCCCO4)C(=O)/C=C/C=C\c4csc(n4)C(C)N(C(=O)C2)[S+]3[O-])cc1 (centres unmarked) ; field requested: IC50
stdout: 35

stdin: Likewise for COC(=O)NCC(=O)OCOC1C=C(C)CCC2(C(C)(O)C(=O)SCOC(=O)CNC(=O)OC)CC(=O)N(C(C)c3nc(cs3)C=CC=CC1=O)[S+]2[O-] (centres unmarked) ?
stdout: 150

stdin: Likewise for COCOCc1oc(=O)oc1CSC(=O)C(C)(O)C12CC/C(C)=C/C(OC3CCCCO3)C(=O)/C=C/C=C\c3csc(n3)C(C)N(C(=O)C1)[S+]2[O-] (centres unmarked) ?
stdout: 2.2

stdin: Likewise for CC(=O)Oc1ccc(CCCC(=O)OCSC(=O)C(C)(O)C23CCC(C)=CC(O)C(=O)C=CC=Cc4csc(n4)C(C)N(C(=O)C2)[S+]3[O-])cc1 (centres unmarked) ?
stdout: 11

====

Items are presented alongside their recorded IC50.
Tested on: HeLa S3 cells
Assay: HeLa S3 Cell Growth Inhibition Test
Type: cell-based
Details: Homo sapiens, HeLa S3, 72 h, HeLa S3; 72 hours incubation; Neutral Red; read-out: IC50, HeLa S3 cell growth inhibition
Provide only the numeric value, understood in nM.

The cases that follow already have their IC50 on record.
- COC(=O)Nc1cccc(C(=O)OCSC(=O)C(C)(O)C23CCC(C)=CC(O)C(=O)C=CC=Cc4csc(n4)C(C)N(C(=O)C2)[S+]3[O-])c1 (stereo not drawn): 55
- CC(=O)NCC(=O)OCc1oc(=O)oc1CSC(=O)C(C)(O)C12CC/C(C)=C/C(OC3CCCCO3)C(=O)/C=C/C=C\c3csc(n3)C(C)N(C(=O)C1)[S+]2[O-] (stereo not drawn): 70

Kindly consider the entry below.
stdin: Provide the documented IC50 with HeLa S3 cells as the system for CC1=CC(O)C(=O)C=CC=Cc2csc(n2)C(C)N2C(=O)CC(C(C)(O)C(=O)SCOC(=O)CNC(=O)[C@@]34O[C@H]5COC(C)(C)O[C@H]5[C@@H]3OC(C)(C)O4)(CC1)[S+]2[O-] (stereo partly drawn)
stdout: 57

====

Items are presented alongside their recorded response vs control in vivo at 8 mg/kg.
Test system: Sarcoma 180 mouse solid tumor
Assay: Antitumor activity against Sarcoma 180 mouse solid tumor
Format: in vivo, mouse (ddY)
Conditions: Sarcoma-180, iv, 168 h, read-out: T/C (tumor volume ratio treated/control)
Provide only the numeric value, understood in %.

The cases that follow already have their response vs control in vivo at 8 mg/kg on record.
• C/C1=C\C(OC2CCCCO2)C(=O)/C=C/C=C\c2csc(n2)C(C)N2C(=O)CC(C(C)(O)C(=O)SCc3oc(=O)oc3COC(=O)c3cnc4ccccc4n3)(CC1)[S+]2[O-] (centres unmarked) = 43
• C/C1=C\C(O)C(=O)/C=C/C=C\c2csc(n2)C(C)N2C(=O)CC(C(C)(O)C(=O)SCc3oc(=O)oc3CO[C@H]3C[C@H](O)[C@@H](O)[C@H](C)O3)(CC1)[S+]2[O-] (some centres unmarked) = 37
• C/C1=C\C(OC2CCCCO2)C(=O)/C=C/C=C\c2csc(n2)C(C)N2C(=O)CC(C(C)(O)C(=O)SCOC(=O)CCNC(=O)[C@@]34O[C@@H](CO)[C@@H](O)[C@@H]3OC(C)(C)O4)(CC1)[S+]2[O-] (some centres unmarked) = 43
• C/C1=C\C(O)C(=O)/C=C/C=C\c2csc(n2)C(C)N2C(=O)CC(C(C)(O)C(=O)SCc3oc(=O)oc3COC=O)(CC1)[S+]2[O-] (centres unmarked) = 49

stdin: Query (molecule): COC(=O)[C@H](CCC(=O)OCSC(=O)C(C)(O)C12CC/C(C)=C/C(O)C(=O)/C=C/C=C\c3csc(n3)C(C)N(C(=O)C1)[S+]2[O-])NC(=O)C1CCC(=O)N1 (some centres unmarked) ; field requested: response vs control in vivo at 8 mg/kg
stdout: 27
